Cited source for all entries: ChEMBL document CHEMBL3588814

system: UniProt:Q8TDS4
Sequence (Q8TDS4 whole entry): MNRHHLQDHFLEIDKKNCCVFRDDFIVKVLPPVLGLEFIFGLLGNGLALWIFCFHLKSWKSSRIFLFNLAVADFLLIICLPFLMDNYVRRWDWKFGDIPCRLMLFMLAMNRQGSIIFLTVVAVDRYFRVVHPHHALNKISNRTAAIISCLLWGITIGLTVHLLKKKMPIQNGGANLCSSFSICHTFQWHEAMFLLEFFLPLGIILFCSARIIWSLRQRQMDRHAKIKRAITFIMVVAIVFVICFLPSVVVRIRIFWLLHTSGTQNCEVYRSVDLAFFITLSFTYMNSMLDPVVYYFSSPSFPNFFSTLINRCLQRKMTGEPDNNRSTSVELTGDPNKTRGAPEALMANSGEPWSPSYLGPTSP
experiment.summary: Displacement of [3H]-nicotinic acid from N-flag-tagged human HCA2 receptor expressed in HEK293T cell membranes at 10^-5 M by scintillation counting analysis relative to control
experimental.parameters: HEK-293T
attribute.measured: inhibition (%)

[[record]]
chem_smiles = "COc1ccc(-c2ccc(CCC(=O)Nc3ccccc3C(=O)O)cc2)cc1"
system = "UniProt:Q8TDS4"
output_unit = "%"
result_number = 46

[[record]]
chem_smiles = "O=C(CCc1ccc(-c2ccc(C(F)(F)F)cc2)cc1)Nc1ccccc1C(=O)O"
system = "UniProt:Q8TDS4"
output_unit = "%"
result_number = 41

[[record]]
chem_smiles = "O=C(CCc1ccc(-c2ccc(Cl)cc2)cc1)Nc1ccccc1C(=O)O"
system = "UniProt:Q8TDS4"
output_unit = "%"
result_number = 60

[[record]]
chem_smiles = "Cc1ccc(-c2ccc(CCC(=O)Nc3ccccc3C(=O)O)cc2)cc1"
system = "UniProt:Q8TDS4"
output_unit = "%"
result_number = 68

[[record]]
chem_smiles = "O=C(CCc1ccc(-c2ccc(CO)cc2)cc1)Nc1ccccc1C(=O)O"
system = "UniProt:Q8TDS4"
output_unit = "%"
result_number = 51

